- tgt: T1, SYNJ2BP, P57105
- T1 sequence (P57105 8-110, limits assumed, looked up): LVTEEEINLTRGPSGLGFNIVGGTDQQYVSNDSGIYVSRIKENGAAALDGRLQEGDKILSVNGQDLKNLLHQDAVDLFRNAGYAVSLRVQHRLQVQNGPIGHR
- test-protocol: holdup assay
- Parameters: key: below the threshold = too weak to quantify, mostly under pKd 3.1 to 4
- conditions-used: plain residues with an end cap or a label only (N-terminal biotin on a linker: ahx)
recorded-endpoint: pKd

EKQAKGDTEF [CACYBP, Q9HB71]; below the threshold
TEAKLTETNA [MYO18A, Q92614]; below the threshold
APSRKLNTEI [TIAM1, Q13009]; below the threshold
